Biological target: hSkM1 isoform of Na+ channels (Homo sapiens, UniProt P35499)
Construct: expressed in transfected cells
Sequence (P35499 whole entry, canonical isoform): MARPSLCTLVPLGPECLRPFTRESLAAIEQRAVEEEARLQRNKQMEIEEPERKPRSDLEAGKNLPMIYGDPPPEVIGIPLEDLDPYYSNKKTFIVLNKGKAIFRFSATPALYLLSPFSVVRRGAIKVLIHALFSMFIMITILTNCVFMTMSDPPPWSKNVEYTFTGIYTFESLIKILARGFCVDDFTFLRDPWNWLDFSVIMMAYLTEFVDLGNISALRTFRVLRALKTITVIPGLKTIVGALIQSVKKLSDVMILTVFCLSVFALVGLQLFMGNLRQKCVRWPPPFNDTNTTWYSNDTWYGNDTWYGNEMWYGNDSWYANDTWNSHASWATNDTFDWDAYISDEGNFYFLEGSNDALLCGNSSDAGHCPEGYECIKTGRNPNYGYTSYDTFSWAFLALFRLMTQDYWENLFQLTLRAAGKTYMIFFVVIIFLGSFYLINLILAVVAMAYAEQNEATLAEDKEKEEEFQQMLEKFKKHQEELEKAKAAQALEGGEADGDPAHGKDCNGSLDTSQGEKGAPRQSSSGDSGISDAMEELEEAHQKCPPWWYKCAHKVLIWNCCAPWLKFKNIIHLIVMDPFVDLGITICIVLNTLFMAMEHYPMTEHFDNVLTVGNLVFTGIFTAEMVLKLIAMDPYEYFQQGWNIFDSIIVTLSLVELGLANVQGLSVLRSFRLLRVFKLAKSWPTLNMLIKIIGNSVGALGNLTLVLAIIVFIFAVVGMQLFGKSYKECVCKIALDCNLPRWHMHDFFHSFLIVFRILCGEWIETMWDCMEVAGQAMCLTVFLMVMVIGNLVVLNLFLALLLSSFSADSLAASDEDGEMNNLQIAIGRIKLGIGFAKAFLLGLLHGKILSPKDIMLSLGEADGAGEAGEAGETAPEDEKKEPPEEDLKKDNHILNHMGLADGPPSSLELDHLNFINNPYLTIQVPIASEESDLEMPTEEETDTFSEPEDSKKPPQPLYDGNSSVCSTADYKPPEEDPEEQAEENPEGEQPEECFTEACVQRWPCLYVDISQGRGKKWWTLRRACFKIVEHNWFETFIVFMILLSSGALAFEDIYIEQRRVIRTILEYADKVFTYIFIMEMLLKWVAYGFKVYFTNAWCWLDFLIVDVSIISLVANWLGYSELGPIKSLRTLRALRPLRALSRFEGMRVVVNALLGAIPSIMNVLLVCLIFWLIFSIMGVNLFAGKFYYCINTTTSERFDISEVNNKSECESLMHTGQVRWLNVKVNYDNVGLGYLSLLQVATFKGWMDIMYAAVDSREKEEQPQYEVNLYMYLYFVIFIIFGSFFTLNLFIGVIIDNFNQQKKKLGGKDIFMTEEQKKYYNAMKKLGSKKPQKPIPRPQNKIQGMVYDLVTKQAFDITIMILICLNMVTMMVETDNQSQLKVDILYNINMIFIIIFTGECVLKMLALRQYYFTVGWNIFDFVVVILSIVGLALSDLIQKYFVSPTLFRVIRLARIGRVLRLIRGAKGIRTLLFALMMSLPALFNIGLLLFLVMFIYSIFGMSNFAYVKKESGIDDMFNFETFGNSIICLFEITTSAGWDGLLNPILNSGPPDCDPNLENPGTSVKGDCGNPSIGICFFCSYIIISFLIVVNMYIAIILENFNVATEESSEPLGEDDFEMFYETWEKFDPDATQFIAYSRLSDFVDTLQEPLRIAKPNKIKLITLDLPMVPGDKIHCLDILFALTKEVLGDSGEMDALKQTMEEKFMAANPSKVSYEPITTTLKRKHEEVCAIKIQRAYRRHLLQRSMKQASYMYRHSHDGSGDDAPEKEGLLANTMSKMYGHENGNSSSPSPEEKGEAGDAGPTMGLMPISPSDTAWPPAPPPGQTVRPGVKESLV
Assay: Electrophysiological assay, whole-cell patch-clamp recordings of voltage-sensitive Na+ currents
Assay type: cell-based
Conditions: HEK-293 cells stably expressing hSkM1; inactivated state; read-out: apparent antagonist dissociation constant Ki (the concentration of a compound that produces half maximal inhibition) for inactivated sodium channels
Measurement Name: Ki (nM)
Enter your answer as a number in nM; do not include the unit.

Request: Lookup: Ki / hSkM1 isoform of Na+ channels (Homo sapiens, UniProt P35499) / "Nc1ncccc1NCc1ccc(Oc2ccc(F)cc2)cc1"
Response: 60
